Target Or Test System: T1, human claudin 18.2 (hCLDN18.2) (human)
T1 construct: also called CLDN18 splice variant 2; HEK293-hCLDN18.2
Test Summary: flow cytometry on HEK293-hCLDN18.2 cells; 0.2 ug/mL; antibody heat treated at 70 C for 5 min
Property: FACS binding signal (read-out unnamed)

Known results for binders:
Ask: Can you look up the measured FACS binding signal (read-out unnamed) of 5-M9 human-mouse chimeric monoclonal antibody (antibody, human IgG1, V domains shown, Mouse V regions fused to human IgG1 (G1m17) heavy chain constant region and human kappa light chain constant region; also called 5-M9-A; Chi 5-M9) VH: QVQLKESGPVLVAPSQSLSITCTVSGFSLTTYGVQWVRQPPGKGLEWLGAIWAGGNTNYNSALMSRLSISKDNSKSQVFLKMNSLQTDDTAIYYCAKGGYGNAMDYWGQGTSVTVAS VL: DIVMTQSPSSLTVTAGERVTMSCKSSQSLLNSGNQKNYLTWYQQKSGQPPKLLIYWASTRESGVPDRFTGSGSGTDFTLTISSVQAEDLAVYYCQNDYFFPFTFGSGTKLEIK for me?
Reply: 75.6

Ask: Could you share which FACS binding signal (read-out unnamed) value was measured for h5M9V10 humanized antibody (h5M9 VHv4 / h5M9 VLv1) (antibody, human IgG1, kappa, V domains shown, Human IgG1 (G1m17) / kappa) VH: QVQLKESGPGLVAPSETLSITCTVSGFSLTTYGVQWVRQPPGKGLEWLGAIWAGGNTNYNSALMSRLTISKDNSKSQVSLKMSSLTAADTAIYYCAKGGYGNAMDYWGQGTLVTVSS VL: DIVMTQSPSSLAVSLGERATMNCKSSQSLLNSGNQKNYLTWYQQKPGQPPKLLIYWASTRESGVPDRFSGSGSGTDFTLTISSVQAEDLAVYYCQNDYFFPFTFGQGTKLEIKR ?
Reply: 70.8

Ask: Suppose we examine the binder h5M9v9 humanized antibody (h5M9 VHv3 / h5M9 VLv3) (antibody, V domains shown, Human IgG1 (G1m17) heavy and human kappa light constant regions) VH: QVQLKESGPGLVAPSETLSITCTVSGFSLTTYGVQWVRQPPGKGLEWLGAIWAGGNTNYNSALMSRLTISKDNSKSQVSLKMSSVTAADTAIYYCAKGGYGNAMDYWGQGTLVTVSS VL: DIVMTQSPSSLAVSLGERVTMNCKSSQSLLNSGNQKNYLTWYQQKPGQPPKLLIYWASTRESGVPDRFTGSGSGTDFTLTISSVQAEDLAVYYCQNDYFFPFTFGSGTKLEIK ; what FACS binding signal (read-out unnamed) value has been reported?
Reply: 59.2

Ask: FACS binding signal (read-out unnamed) for h5M9V7 humanized antibody (h5M9 VHv3 / h5M9 VLv1) (antibody, human IgG1, kappa, V domains shown, Human IgG1 (G1m17) / kappa) VH: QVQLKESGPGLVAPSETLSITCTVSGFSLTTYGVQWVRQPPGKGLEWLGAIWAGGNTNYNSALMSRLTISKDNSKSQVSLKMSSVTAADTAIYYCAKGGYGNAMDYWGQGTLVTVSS VL: DIVMTQSPSSLAVSLGERATMNCKSSQSLLNSGNQKNYLTWYQQKPGQPPKLLIYWASTRESGVPDRFSGSGSGTDFTLTISSVQAEDLAVYYCQNDYFFPFTFGQGTKLEIKR ?
Reply: 73.3

Pending binder:
Ask: What does the record list as FACS binding signal (read-out unnamed) for h5M9V12 humanized antibody (h5M9 VHv4 / h5M9 VLv3) (antibody, human IgG1, kappa, V domains shown, Human IgG1 (G1m17) / kappa) VH: QVQLKESGPGLVAPSETLSITCTVSGFSLTTYGVQWVRQPPGKGLEWLGAIWAGGNTNYNSALMSRLTISKDNSKSQVSLKMSSLTAADTAIYYCAKGGYGNAMDYWGQGTLVTVSS VL: DIVMTQSPSSLAVSLGERVTMNCKSSQSLLNSGNQKNYLTWYQQKPGQPPKLLIYWASTRESGVPDRFTGSGSGTDFTLTISSVQAEDLAVYYCQNDYFFPFTFGSGTKLEIKR ?
Reply: 90
